Provenance of the data: patent US9580426B2

Property: log10 of EC50; scope: individual compounds
- System: Primary adult CD34+ human hematopoietic stem cells (HSCs)
- Method: % CD34+ assay: HSC expansion screen, dose response
- Format: cell-based
- Experimental Conditions: Homo sapiens, Hematopoietic stem cell; dose response 1 nM to 10 μM; total number and/or percent of CD34+ cells
Observation Type: log10 of EC50 (log10 of the value in µM)

1. Cc1cc(CCNc2nc(-c3cncc(F)c3)nc3c2ncn3C(C)CO)ccc1O (stereo not drawn) [Example 200]: -3.00
2. CCC(C)n1cnc2c(NCCc3c[nH]c4ccccc34)nc(-c3cncc(F)c3)nc21 (stereo not drawn) [Example 132]: -2.52
3. CC(C)n1cnc2c(NCCc3ccc(O)cc3)nc(-c3cncc(C#N)c3)nc21 [Example 37]: -1.62
4. CC(C)n1cnc2c(NCCc3ccc(O)cc3)nc(-c3cnccc3Cl)nc21 [Example 48]: -0.29
5. CC(C)n1cnc2c(NCCc3ccc(O)cc3)cc(-c3cncc(F)c3)nc21 [Example 177]: -0.85
6. CC(Cc1ccc(O)cc1)Nc1nc(-c2cccnc2)nc2c1ncn2C(C)C (stereo not drawn) [Example 95]: 0.36
7. CC(C)n1cnc2c(NCCCc3cn[nH]c3)nc(-c3csc4ccccc34)nc21 [Example 84]: 0.73
8. Cc1cc(CCNc2nc(-c3cccnc3)nc3c2ncn3C(C)C)ccc1O [Example 150]: -1.24
9. CC(C)n1cnc2c(NCC(O)c3ccc(O)cc3)nc(-c3cncc(F)c3)nc21 (stereo not drawn) [Example 167]: -0.54
10. CCC(C)n1cnc2c(NCCc3c[nH]c4ccccc34)nc(-n3ccnc3C)nc21 (stereo not drawn) [Example 178]: -2.52
11. COc1ccc2c(CCNc3nc(-c4cncc(F)c4)nc4c3ncn4C(C)C)c[nH]c2c1 [Example 169]: -1.36
12. Oc1ccc(CCNc2nc(-c3cncc(F)c3)nc3c2ncn3C2COC2)cc1 [Example 127]: -0.33
13. CC(CO)n1cnc2c(NCCc3ccc(O)cc3)nc(-c3cccnc3)nc21 (stereo not drawn) [Example 113]: -0.27
14. CC(C)n1ncc2c(NCCc3ccc(O)cc3)nc(-c3csc4ccccc34)nc21 [Example 135]: -0.42
15. CC(C)n1cnc2c(NCCc3ccc(O)cc3)nc(-c3ccsc3)nc21 [Example 17]: -0.01
16. CC(C)n1cnc2c(NCCc3ccc(O)cc3)nc(-c3ccc(F)nc3)nc21 [Example 34]: -0.80
17. CC(C)n1cnc2c(NCCc3ccc(O)cc3)nc(-c3cncnc3)nc21 [Example 14]: -0.77
18. CC(C)n1cnc2c(NCCc3c[nH]c4ccc(F)cc34)nc(-c3cccnc3)nc21 [Example 149]: -0.28
